This section presents compounds with their documented melting point values.
reported endpoint: melting point

compound=O=[N+]([O-])c1cccc(-c2cc3c(Cl)ncnc3o2)c1 reported_endpoint="melting point" test_result="196 to 205 °C"
compound=C=C(C)CSc1ccccc1S(=O)(=O)NC(C)(C)C reported_endpoint="melting point" test_result="104 to 107 °C"
compound="CC(C)(C)OC(=O)N1CCCC1C(=O)Nc1cccc(-c2cc(-c3ccccc3O)nc(NC(=O)c3cccs3)c2C#N)c1 (stereo not given)" reported_endpoint="melting point" test_result="167 to 169 °C"
compound=O=C(Nc1ccc2[nH]ccc2c1)C(=O)N1CCC(Cc2ccccc2)CC1 reported_endpoint="melting point" test_result="68 to 72 °C"
compound=CS(=O)(=O)c1cc(-c2ccccc2)ncn1 reported_endpoint="melting point" test_result="109 to 111 °C"
compound="COC(c1ccccc1)C(C)([N+](=O)[O-])[N+](=O)[O-] (stereo not given)" reported_endpoint="melting point" test_result="53 to 55 °C"
compound=OC1(c2cccc3[nH]ccc23)CCN(CCOc2ccccc2)CC1 reported_endpoint="melting point" test_result="168 °C"
compound=CC(C)C[C@H](NC(=O)[C@@H]1CCC(=O)N1C(=O)OCc1ccccc1)C(=O)OC(C)(C)C reported_endpoint="melting point" test_result="130 to 131 °C"
compound=Cc1c(N2C[C@H](CF)[C@H](N)C2)c(F)cc2c(=O)c(C(=O)O)cn(C3CC3)c12 reported_endpoint="melting point" test_result="160 to 165 °C"
compound=O=c1[nH]c2ccc(Cl)cc2n1CCCN1CCC(O)(c2ccc(Cl)cc2)CC1 reported_endpoint="melting point" test_result="181 °C"

---

Below, each of the compounds is paired with its reported melting point value.
reported endpoint: melting point

compound=O=C(Nc1cc2nc(-c3ccc(C(=O)C45CC6CC(CC(C6)C4)C5)cc3)[nH]c2cn1)c1ccccn1 test_result="305 °C"
compound=N#CC1(O)COc2ccccc2OC1 test_result="108 to 110 °C"
compound=CCCCCCCCCCCCCCCCCCCCC(NC(C)=O)(C(=O)OCC)C(=O)OCC test_result="76.5 to 77.5 °C"
compound="O=C(O)c1ccc(NC(=O)C(CS)Cc2ccccc2)cc1Cl (stereo not given)" test_result="65 to 70 °C"
compound=O=C(CO)NCCCCCCCCCCNC(=O)CO test_result="120 to 122 °C"
compound="COc1ccc(CSC(C)(C)C2(c3ccc(F)cc3F)CO2)cc1 (stereo not given)" test_result="55 to 56 °C"
compound=CC(C)(Cn1c(CO)nc2c(N)nc3cccnc3c21)NC(=O)C1CCCCC1 test_result="230 to 232 °C"
compound=CS(=O)(=O)c1ccc(C2=C(c3ccc(CO)cc3)CCC2)cc1 test_result="114 to 115 °C"
compound=COC(=O)c1sc2c(c1C)c1ccccc1n2Cc1ccccc1 test_result="132 to 134 °C"
compound=COC(=O)CCCc1cc2cc(C(F)(F)F)ccc2n1S(=O)(=O)c1cccc(C(C)(C)C)c1 test_result="84 °C"

---

# melting point per entry
reported endpoint: melting point

compound="Nc1cc(C=O)nc(C2CCCO2)c1F (configuration not stated)" test_result="122 to 123 °C"
compound=CC1(C)CCCCc2ccc(C(=O)O)cc21 test_result="155 to 156 °C"
compound=COc1cccc(Oc2ccc([C@@H]3CCCN4CCS(=O)(=O)N=C34)cc2)c1 test_result="139 to 140 °C"
compound=C[C@H](NC(=O)[C@@H](CC(=O)O)NC(=O)c1ccccc1)C(=O)N1CCC[C@H]1C(=O)O test_result="161 to 163 °C"
compound="CCC(C)S(=O)(=O)c1snc(OC(F)F)c1C#N (configuration not stated)" test_result="42 to 43 °C"
compound=COC(=O)CCCc1n[nH]c(=O)c2cc(OC)ccc12 test_result="175 to 177 °C"
compound=N#Cc1cnn(CCCl)c1N test_result="156 °C"
compound=CCn1c2ccc(C)cc2c2ccc3ccccc3c21 test_result="111 to 114 °C"
compound="NCC1Cc2cccc(-c3cc(Cl)cc(Cl)c3)c2O1 (configuration not stated)" test_result="165 to 168 °C"
compound="CC1Oc2ccccc2CC1NNc1ncnc2c1ncn2C1OC(CO)C(O)C1O (configuration not stated)" test_result="90 to 92 °C"
compound=COc1c(C)c2c(c(C(=O)O)c1C/C=C(\C)CCC(=O)O)C(=O)OC2 test_result="172 to 174 °C"
compound=O=C(N[C@H]1CC[C@H](CCN2CCN(c3nccc4c3CCO4)CC2)CC1)c1ccc2c(c1)OCO2 test_result="244 °C"
compound=CCOC(=O)c1cnc2c(cnn2CC)c1Nc1ccccc1N test_result="126 to 128 °C"
compound=Cc1c(C(=O)N[C@@H]2CN3CCC2CC3)c2ccccc2n1C test_result="176 to 177 °C"
compound=CC(C)(O)c1nnc2ccc(-c3c(-c4ccc(F)cc4F)nc4occn34)nn12 test_result="258 to 260 °C"
compound="CC(OCc1ccc(-c2ccccc2)cc1)(C(=O)O)C(F)(F)F (configuration not stated)" test_result="80 to 81 °C"
compound=COc1ccc2[nH]c(-c3cc(C)c(O)c(C)c3)c(C)c2c1 test_result="158 to 159 °C"
compound=Cc1ncsc1C(=O)Nc1ccc(-n2nc(C3CC3)cc2C2CC2)cc1 test_result="110 to 114 °C"
compound=NCCc1cccc(N2CCN(c3ccc(CCC(=O)O)cc3)C2=O)c1 test_result="> 250 °C"
compound="C#CC1(O)CCC2C3CCC4=CC(=O)CCC4C3C(=CF)CC21CC (configuration not stated)" test_result="169 to 180 °C"
compound="CCOC(=O)C(CC(=O)c1ccc(Oc2ccc(C)cc2)cc1)SC(C)=O (configuration not stated)" test_result="85 to 86.5 °C"
compound=CCCc1ccc(S(=O)(=O)NCc2ccccn2)cc1 test_result="109 °C"
